target: PARG (Homo sapiens, UniProt Q86W56); assay: Biochemical assay (PARG, TFMU-ADPr substrate); conditions: PARG, TFMU-ADPr substrate
Sequence (Q86W56 whole entry): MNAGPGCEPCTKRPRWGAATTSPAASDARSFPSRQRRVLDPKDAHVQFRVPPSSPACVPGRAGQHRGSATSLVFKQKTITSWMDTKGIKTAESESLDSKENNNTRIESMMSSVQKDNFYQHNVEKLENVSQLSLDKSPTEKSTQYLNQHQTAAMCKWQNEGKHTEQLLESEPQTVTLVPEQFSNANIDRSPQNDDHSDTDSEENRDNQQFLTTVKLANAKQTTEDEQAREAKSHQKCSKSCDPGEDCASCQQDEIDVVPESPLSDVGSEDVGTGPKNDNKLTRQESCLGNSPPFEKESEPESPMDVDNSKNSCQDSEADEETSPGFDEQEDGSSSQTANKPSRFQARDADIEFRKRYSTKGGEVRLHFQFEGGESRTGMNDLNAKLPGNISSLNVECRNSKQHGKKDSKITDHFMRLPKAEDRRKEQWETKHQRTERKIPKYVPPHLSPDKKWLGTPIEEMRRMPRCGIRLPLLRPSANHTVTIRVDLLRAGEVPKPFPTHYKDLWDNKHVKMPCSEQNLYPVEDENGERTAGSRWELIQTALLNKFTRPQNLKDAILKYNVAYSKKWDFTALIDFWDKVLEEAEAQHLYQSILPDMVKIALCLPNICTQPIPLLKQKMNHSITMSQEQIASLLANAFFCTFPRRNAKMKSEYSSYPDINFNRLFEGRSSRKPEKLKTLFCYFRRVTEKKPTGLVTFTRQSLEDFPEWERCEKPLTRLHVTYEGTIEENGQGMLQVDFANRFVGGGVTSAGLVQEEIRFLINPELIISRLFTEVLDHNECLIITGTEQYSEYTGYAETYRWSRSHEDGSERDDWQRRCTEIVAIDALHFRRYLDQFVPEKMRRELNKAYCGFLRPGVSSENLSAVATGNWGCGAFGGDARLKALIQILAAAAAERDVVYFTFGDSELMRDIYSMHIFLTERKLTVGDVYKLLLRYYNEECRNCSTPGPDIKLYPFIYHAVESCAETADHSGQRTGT
Measured IC50 values are reported for all entries that follow.
Reported Endpoint: IC50 (nM)

INSERT INTO measurements (compound, unit_name, rel, recorded_number) VALUES
  ('CC(C)C(=O)N1CCN(c2cc(S(=O)(=O)NC3CC3)cn3c(-c4nnc(C(F)F)s4)nc(Cl)c23)C[C@H]1C [Example 131]', 'nM', '=', 22.9),
  ('Cc1cnc(-c2cnc3c(N4CCN(C(=O)C(C)C)CC4)cc(S(=O)(=O)NC4(C#N)CC4)cn23)s1 [Example 3]', 'nM', '=', 33.1),
  ('CC1(O)CC2(CCN(c3cc(S(=O)(=O)NC4(C#N)CC4)cn4c(-c5nnc(C(F)(F)F)s5)ncc34)CC2)C1 [Example 242]', 'nM', '=', 52.5),
  ('C[C@@H]1CN(c2cc(S(=O)(=O)NC3(C)COC3)cn3c(-c4nnc(C(F)F)s4)ncc23)CCN1C(=O)C1(C)CC1 [Example 88]', 'nM', '=', 8.69),
  ('N#CC1(NS(=O)(=O)c2cc(N3CCC4(CC3)COC4)c3cnc(-c4nnc(C(F)(F)F)s4)n3c2)CC1 [Example 209]', 'nM', '=', 60.3),
  ('CC1(NS(=O)(=O)c2cc(N3CCN(C(=O)C4CCOCC4)CC3)c3cnc(-c4nnc(C(F)(F)F)s4)n3c2)CC1 [Example 292]', 'nM', '=', 4.57),
  ('[2H]c1nc(-c2nnc(C(F)F)s2)n2cc(S(=O)(=O)NC3(C#N)CC3)cc(N3CCN(C(=O)C4(C)CC4)[C@H](C)C3)c12 [Example 156]', 'nM', '=', 6.92),
  ('C[C@@H]1CN(c2cc(S(=O)(=O)NC3(C#N)CC3)cn3c(-c4nnc(C(F)F)s4)ncc23)CCN1C(=O)C(C)(C)F [Example 94]', 'nM', '=', 9.55),
  ('CC#CC(C)(O)C(=O)N1CCN(c2cc(S(=O)(=O)NC3(C#N)CC3)cn3c(-c4nnc(C(F)(F)F)s4)ncc23)CC1 (stereo not drawn) [Example 256]', 'nM', '=', 8.71),
  ('C[C@H]1CN(c2cc(S(=O)(=O)NC3(C)COC3)cn3c(-c4nnc(C(F)F)s4)ncc23)C[C@H](CN(C)C)O1 [Example 398]', 'nM', '=', 27.5),
  ('Cc1nc(-c2nnc(C(F)F)s2)n2cc(S(=O)(=O)NC3(C)COC3)cc(N3CCC4(CC3)COC4)c12 [Example 169]', 'nM', '=', 1.82),
  ('N#CC1(NS(=O)(=O)c2cc(N3CCN(C(=O)C4CC(F)(F)C4)CC3)c3cnc(-c4nnc(C(F)F)s4)n3c2)CC1 [Example 146]', 'nM', '=', 11.5),
  ('CN1CCC[C@@H]1C(=O)N1CCN(c2cc(S(=O)(=O)NC3(C)CC3)cn3c(-c4nnc(C(F)(F)F)s4)ncc23)CC1 [Example 325]', 'nM', '=', 4.46),
  ('CC1(NS(=O)(=O)c2cc(N3CCN(C(=O)C4CCO4)CC3)c3cnc(-c4nnc(C(F)(F)F)s4)n3c2)CC1 (stereo not drawn) [Example 304]', 'nM', '=', 3.86),
  ('CC1(NS(=O)(=O)c2cc(N3CCO[C@H](CO)C3)c3cnc(-c4nnc(C(F)F)s4)n3c2)CC1 [Example 342]', 'nM', '=', 3.04),
  ('CC1(NS(=O)(=O)c2cc(N3CCN(C(=O)C4(C)CCN4)CC3)c3cnc(-c4nnc(C(F)(F)F)s4)n3c2)CC1 (stereo not drawn) [Example 321]', 'nM', '=', 2.93),
  ('CC(C)C(=O)N1CCN(c2nc(S(=O)(=O)NC3(C)CC3)cn3c(-c4nnc(C(F)F)s4)ncc23)CC1 [Example 162]', 'nM', '=', 525),
  ('COC1(C(=O)N2CCN(c3cc(S(=O)(=O)NC4(C)CC4)cn4c(-c5nnc(C(F)F)s5)ncc34)CC2)CC1 [Example 196]', 'nM', '<', 0.1),
  ('CC(CO)C(=O)N1CCN(c2cc(S(=O)(=O)NC3(C#N)CC3)cn3c(-c4nnc(C(F)(F)F)s4)ncc23)CC1 (stereo not drawn) [Example 259]', 'nM', '=', 45.7),
  ('N#CC1(NS(=O)(=O)c2cc(N3CCN(C(=O)C4CC(O)C4)CC3)c3cnc(-c4nnc(C(F)(F)F)s4)n3c2)CC1 (stereo not drawn) [Example 283]', 'nM', '=', 3.8),
  ('CC1(NS(=O)(=O)c2cc(N3CCN(C(=O)C4(O)CC4)CC3)c3cnc(-c4nnc(C(F)(F)F)s4)n3c2)CC1 [Example 291]', 'nM', '=', 9.55),
  ('N#CC1(NS(=O)(=O)c2cc(N3CCNC(=O)C3)c3cnc(-c4nnc(C(F)(F)F)s4)n3c2)CC1 [Example 248]', 'nM', '=', 692),
  ('C[C@@H]1CN(c2cc(S(=O)(=O)NC3CC3)cn3c(-c4nnc(C(F)(F)F)s4)nnc23)CCN1C(=O)C1(C)CC1 [Example 386]', 'nM', '=', 263),
  ('CC(C)C(=O)N1CCN(c2cc(S(=O)(=O)NC(C3CC3)C(F)(F)F)cn3c(-c4nnc(C(F)F)s4)ncc23)CC1 (stereo not drawn) [Example 36]', 'nM', '=', 649),
  ('COC(C)C(=O)N1CCN(c2cc(S(=O)(=O)NC3(C)CC3)cn3c(-c4nnc(C(F)(F)F)s4)ncc23)CC1 (stereo not drawn) [Example 328]', 'nM', '=', 1.21),
  ('CC(C)C(=O)N1CC2(C=C(c3nc(-c4nnc(C(F)(F)F)s4)n4cc(S(=O)(=O)NC5(C#N)CC5)ccc34)CC2)C1 [Example 389]', 'nM', '=', 20),
  ('CC(C)(F)C(=O)N1CCN(c2cc(S(=O)(=O)NC3(C#N)CC3)cn3c(-c4nnc(C(F)F)s4)ncc23)CC1 [Example 64]', 'nM', '=', 3.44);
